- study_target: human C5aR (CD88) (human, UniProt P21730 1-350)
- Sequence (looked up): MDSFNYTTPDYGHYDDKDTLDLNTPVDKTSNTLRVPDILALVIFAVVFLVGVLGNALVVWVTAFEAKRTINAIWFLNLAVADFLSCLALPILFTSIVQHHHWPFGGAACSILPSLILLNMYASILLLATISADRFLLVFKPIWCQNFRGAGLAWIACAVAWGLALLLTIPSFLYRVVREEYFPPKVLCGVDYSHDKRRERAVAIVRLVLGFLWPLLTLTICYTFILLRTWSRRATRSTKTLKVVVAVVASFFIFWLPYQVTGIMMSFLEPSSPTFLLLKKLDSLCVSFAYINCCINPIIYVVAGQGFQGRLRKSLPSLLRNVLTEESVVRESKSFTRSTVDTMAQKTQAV
- measurement_notes: cell-based or functional assay
Here the recorded IC50 activity group, enzyme release assay is given for each entry.

[[record]]
substance = "Ac-Phe-Orn-Pro-hle-Bta-2Ni-NH2 (peptide)"
reported = "< 200 nM"

[[record]]
substance = "Ac-Phe-[Orn-Hyp-Mmf-Trp-Nle] (peptide)"
reported = "< 200 nM"

[[record]]
substance = "Ac-Lys-Phe-Orn-Aze-cha-Bta-Phe-NH2 (peptide)"
reported = "< 20 nM"


Query substance follows.
[in] For Ac-Phe-Dap-Pro-cha-Bta-Phe-NH2 (peptide) , what is its reported IC50 activity group, enzyme release assay?
[out] < 200 nM

* * *

- study_target: human C5aR (CD88) (human, UniProt P21730 1-350)
- Sequence (looked up): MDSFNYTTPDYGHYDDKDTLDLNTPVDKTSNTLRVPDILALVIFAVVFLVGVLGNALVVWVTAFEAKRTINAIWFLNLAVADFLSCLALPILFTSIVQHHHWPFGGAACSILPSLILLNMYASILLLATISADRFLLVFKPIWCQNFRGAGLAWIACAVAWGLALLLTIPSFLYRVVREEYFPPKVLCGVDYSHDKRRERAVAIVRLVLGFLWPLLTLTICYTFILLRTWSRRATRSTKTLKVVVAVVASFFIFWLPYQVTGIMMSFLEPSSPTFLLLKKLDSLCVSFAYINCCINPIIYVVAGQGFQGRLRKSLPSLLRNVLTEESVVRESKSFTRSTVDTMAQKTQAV
- measurement_notes: cell-based or functional assay
outcome_measure: IC50 activity group, enzyme release assay

[[record]]
substance = "Ac-Phe-Orn-Pro-ctb-Eaa-Phe-NH2 (peptide)"
reported = "< 50 nM"

[[record]]
substance = "Ac-Phe-Har-Aze-cha-Bta-Phe-NH2 (peptide)"
reported = "< 20 nM"

[[record]]
substance = "Ac-Hyp-Phe-Orn-Aze-cha-Bta-Phe-NH2 (peptide)"
reported = "< 50 nM"

[[record]]
substance = "Ac-Cit-Phe-Orn-Aze-cha-Bta-Phe-NH2 (peptide)"
reported = "< 50 nM"

[[record]]
substance = "Me-O-CO-Phe-Orn-Pro-cha-Bta-Phe-NH2 (peptide)"
reported = "< 200 nM"


[in] For Ac-Phe-Orn-Pro-ctb-Mcf-Phe-NH2 (peptide) , what is its reported IC50 activity group, enzyme release assay?
[out] < 200 nM

[in] For Ac-Phe-Orn-Pro-cha-Bta-Pcf-NH2 (peptide) , what is its reported IC50 activity group, enzyme release assay?
[out] < 50 nM

[in] For Ac-Phe-Orn-Pro-cha-Bta-NH-CH(CH2OH)-CH2-Ph (peptide) , what is its reported IC50 activity group, enzyme release assay?
[out] < 200 nM

[in] For Ac-Phe-Orn-Pro-cha-Bta-Mcf-NH2 (peptide) , what is its reported IC50 activity group, enzyme release assay?
[out] < 200 nM

[in] For Ac-Pff-Orn-Pro-cha-Bta-Phe-NH2 (peptide) , what is its reported IC50 activity group, enzyme release assay?
[out] < 50 nM

[in] For Ac-Phe-Dab-Pro-cha-Bta-Phe-NH2 (peptide) , what is its reported IC50 activity group, enzyme release assay?
[out] < 20 nM

[in] For Ac-Phe-Orn-Pip-cha-Trp-Phe-NH2 (peptide) , what is its reported IC50 activity group, enzyme release assay?
[out] < 50 nM

[in] For Ac-Phe-Orn-Tic-cha-Trp-Phe-OH (peptide) , what is its reported IC50 activity group, enzyme release assay?
[out] < 2000 nM

* * *

- study_target: human C5aR (CD88) (human, UniProt P21730 1-350)
- Sequence (looked up): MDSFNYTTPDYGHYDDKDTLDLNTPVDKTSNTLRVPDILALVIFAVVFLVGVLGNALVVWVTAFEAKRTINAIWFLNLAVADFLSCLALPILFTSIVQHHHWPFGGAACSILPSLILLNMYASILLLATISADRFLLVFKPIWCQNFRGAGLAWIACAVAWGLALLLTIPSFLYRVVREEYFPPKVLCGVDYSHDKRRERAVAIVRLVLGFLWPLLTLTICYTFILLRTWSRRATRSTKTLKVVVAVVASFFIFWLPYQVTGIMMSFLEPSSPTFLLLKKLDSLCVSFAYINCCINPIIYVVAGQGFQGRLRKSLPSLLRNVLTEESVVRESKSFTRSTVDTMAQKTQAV
- measurement_notes: cell-based or functional assay
outcome_measure: IC50 activity group, enzyme release assay

[[record]]
substance = "Ac-Phg-Orn-Pro-cha-Bta-Phe-NH2 (peptide)"
reported = "< 200 nM"


[in] Please provide the recorded IC50 activity group, enzyme release assay for Ac-Orn-Phe-Orn-Aze-cha-Bta-Phe-NH2 (peptide) , tested on human C5aR (CD88) (human, UniProt P21730 1-350).
[out] < 200 nM

[in] Please provide the recorded IC50 activity group, enzyme release assay for Ac-Thi-Orn-Aze-cha-Bta-Phe-NH2 (peptide) , tested on human C5aR (CD88) (human, UniProt P21730 1-350).
[out] < 20 nM

[in] Please provide the recorded IC50 activity group, enzyme release assay for Ac-Phe-Orn-Pro-hle-Mcf-Phe-NH2 (peptide) , tested on human C5aR (CD88) (human, UniProt P21730 1-350).
[out] < 200 nM

[in] Please provide the recorded IC50 activity group, enzyme release assay for Ac-Phe-Orn-Hse-cha-Bta-Phe-NH2 (peptide) , tested on human C5aR (CD88) (human, UniProt P21730 1-350).
[out] < 200 nM

[in] Please provide the recorded IC50 activity group, enzyme release assay for Ac-Pff-Orn-Pro-hle-Mcf-Pff-NH2 (peptide) , tested on human C5aR (CD88) (human, UniProt P21730 1-350).
[out] < 200 nM

[in] Please provide the recorded IC50 activity group, enzyme release assay for Ac-Eby-Orn-Pro-cha-Bta-Phe-NH2 (peptide) , tested on human C5aR (CD88) (human, UniProt P21730 1-350).
[out] < 50 nM

* * *

- study_target: human C5aR (CD88) (human, UniProt P21730 1-350)
- Sequence (looked up): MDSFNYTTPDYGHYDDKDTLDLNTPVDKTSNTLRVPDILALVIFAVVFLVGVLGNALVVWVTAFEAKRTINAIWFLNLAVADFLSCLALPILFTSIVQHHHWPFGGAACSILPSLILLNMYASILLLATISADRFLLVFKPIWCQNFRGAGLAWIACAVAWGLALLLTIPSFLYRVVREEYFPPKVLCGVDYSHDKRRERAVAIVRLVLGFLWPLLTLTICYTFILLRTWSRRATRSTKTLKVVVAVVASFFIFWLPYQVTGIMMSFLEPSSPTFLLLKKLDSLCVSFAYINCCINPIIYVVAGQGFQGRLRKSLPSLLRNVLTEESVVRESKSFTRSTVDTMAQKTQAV
- measurement_notes: cell-based or functional assay
outcome_measure: IC50 activity group, enzyme release assay

Here are 2 substances together with their reported answers.
[[record]]
substance = "Ac-Phe-Orn-Pro-cha-Bta-Opa-NH2 (peptide)"
reported = "< 200 nM"

[[record]]
substance = "Ac-Phe-Orn-Pro-cha-Bta-Cha-NH2 (peptide)"
reported = "< 200 nM"


[in] For Ac-Phe-Cit-Pro-hle-Bta-Phe-NH2 (peptide) , what is its reported IC50 activity group, enzyme release assay?
[out] < 50 nM

[in] For Ac-Phe-Orn-Pro-hle-Mcf-Cha-NH2 (peptide) , what is its reported IC50 activity group, enzyme release assay?
[out] < 50 nM

* * *

Here the recorded IC50 activity group, enzyme release assay is given for each entry.
- study_target: human C5aR (CD88) (human, UniProt P21730 1-350)
- Sequence (looked up): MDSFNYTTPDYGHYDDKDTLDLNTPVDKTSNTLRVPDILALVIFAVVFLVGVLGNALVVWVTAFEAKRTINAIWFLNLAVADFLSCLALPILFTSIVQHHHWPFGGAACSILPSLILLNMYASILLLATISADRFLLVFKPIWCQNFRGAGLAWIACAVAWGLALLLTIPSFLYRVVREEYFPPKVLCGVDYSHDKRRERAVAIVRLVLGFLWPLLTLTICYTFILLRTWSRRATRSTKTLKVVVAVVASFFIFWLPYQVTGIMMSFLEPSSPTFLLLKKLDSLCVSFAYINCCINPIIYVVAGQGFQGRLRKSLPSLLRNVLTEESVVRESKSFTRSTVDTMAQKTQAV
- measurement_notes: cell-based or functional assay

[in] Please provide the recorded IC50 activity group, enzyme release assay for FAc-Phe-Orn-Aze-cha-Bta-Phe-NH2 (peptide) , tested on human C5aR (CD88) (human, UniProt P21730 1-350).
[out] < 50 nM

[in] Please provide the recorded IC50 activity group, enzyme release assay for Ac-Phe-Orn-Pro-hle-Bta-Egy-NH2 (peptide) , tested on human C5aR (CD88) (human, UniProt P21730 1-350).
[out] < 200 nM

[in] Please provide the recorded IC50 activity group, enzyme release assay for Ac-Phe-Orn-Pro-cha-Bta-Thi-NH2 (peptide) , tested on human C5aR (CD88) (human, UniProt P21730 1-350).
[out] < 20 nM

[in] Please provide the recorded IC50 activity group, enzyme release assay for Ac-Phe-Paf-Pro-cha-Bta-Phe-NH2 (peptide) , tested on human C5aR (CD88) (human, UniProt P21730 1-350).
[out] < 2000 nM
